assay: AUC (0 to t) in mouse at 0.3 mg/kg, po incubated for 24 hrs by LC-MS-MS analysis; type: ADME, organism-based; set-up: dose 0.3 mg/kg, time 24 hrs, route po; conditions: in vivo
parameter_measured: AUC(0-t) at 24 h (ng·h/mL)
Respond with the bare value in ng·h/mL.

Request: Reported AUC(0-t) at 24 h, compound "Cc1c(CN(C)C(=O)/C=C/c2cnc3c(c2)CCC(=O)N3COP(=O)(O)O)oc2ccccc12" : ____
Response: 367

---

assay: Cmax in mouse at 0.3 mg/kg, po incubated for 24 hrs by LC-MS-MS analysis; type: ADME, organism-based; parameters: dose 0.3 mg/kg, time 24 hrs, route po; conditions: in vivo
parameter_measured: Cmax (ng/mL)
Lab book: enter the figure in ng/mL, no units written.

Request: GET /values?readout=Cmax&item= Cc1c(CN(C)C(=O)/C=C/c2cnc3c(c2)CCC(=O)N3COP(=O)(O)O)oc2ccccc12 [AFABICIN]
Response: 154

---

assay: Binding affinity to N-terminal His-tagged Full-length Haemophilus influenzae MetRS2 expressed in Escherichia coli assessed as inhibition constant by tRNA aminoacylation/ATP:PPi assay
parameter_measured: pKi
The scale used: pKi is minus the common logarithm of the concentration in molar units.

Request: GET /values?readout=pKi&item= "O=c1cc(NCCCN[C@@H]2CCOc3c(Br)cc(Br)cc32)[nH]c2ccsc12"
Response: 6.75

---

assay: Drug absorption in Syrian hamster infected with Clostridioides difficile at 75 mg/kg, po by LC-MS analysis; assay type: ADME, organism-based, Mesocricetus auratus; settings: in vivo, read-out: Drug absorption
parameter_measured: Fa (%)
The response must be a number in % with no trailing unit.

Request: // query Fa value for entry "O=c1[nH]c(NCc2ccc(Cl)c(Cl)c2)nc2ncn(CCN3CCOCC3)c12"
Response: 5

---

MIC overview
test system: Clostridioides difficile; assay: Antibacterial activity against Clostridium difficile clinical isolates assessed as inhibition of bacterial growth; format: functional
Quick reminder: number only, in µg/mL, skip the unit.

molecule	parameter_measured	unit_abbrev	observed_measurement
CN[C@H](CC(C)C)C(=O)N[C@H]1C(=O)N[C@@H](CC(N)=O)C(=O)N[C@H]2C(=O)N[C@H]3C(=O)N[C@H](C(=O)N[C@H](C(=O)O)c4cc(O)cc(O)c4-c4cc3ccc4O)[C@H](O)c3ccc(c(Cl)c3)Oc3cc2cc(c3O[C@@H]2O[C@H](CO)[C@@H](O)[C@H](O)[C@H]2O[C@H]2C[C@](C)(N)[C@H](O)[C@H](C)O2)Oc2ccc(cc2Cl)[C@H]1O [VANCOMYCIN]	MIC	µg/mL	0.25

Request: Checklist item: MIC tested on Clostridioides difficile, entry Cc1ncc([N+](=O)[O-])n1CCO [METRONIDAZOLE] , value?
Response: 0.15

Request: Follow-up entry: O=c1[nH]c(NCc2ccc(Cl)c(Cl)c2)nc2ncn(CCN3CCOCC3)c12 [IBEZAPOLSTAT]
Response: 1

Request: Please do the same for CCc1c(Cl)c(O)c(Cl)c(O)c1C(=O)O[C@H]1[C@H](O)[C@H](OC)[C@H](OC/C2=C\C=C\C[C@H](O)/C(C)=C/[C@H](CC)[C@@H](O[C@@H]3OC(C)(C)[C@@H](OC(=O)C(C)C)[C@H](O)[C@@H]3O)/C(C)=C/C(C)=C/C[C@@H]([C@@H](C)O)OC2=O)O[C@@H]1C [FIDAXOMICIN] as well.
Response: 0.15

---

experiment: AUC (0 to t) in mouse at 0.6 mg/kg, po incubated for 24 hrs by LC-MS-MS analysis; assay type: ADME, organism-based; design: dose 0.6 mg/kg, time 24 hrs, route po; settings: in vivo
parameter_measured: AUC(0-t) at 24 h (ng·h/mL)
Reply with just the number (in ng·h/mL).

Request: Entry under review: "Cc1c(CN(C)C(=O)/C=C/c2cnc3c(c2)CCC(=O)N3COP(=O)(O)O)oc2ccccc12" . Reported AUC(0-t) at 24 h?
Response: 196

---

experiment: Oral bioavailability in Beagle dog; assay type: ADME, organism-based, Canis lupus familiaris; details: in vivo
parameter_measured: bioavailability

Request: # lookup: bioavailability of "O=c1cc(NCCCN[C@@H]2CCOc3c(Br)cc(Br)cc32)[nH]c2ccsc12"
Response: < 1%

---

test: Plasma protein binding in human at 0.2 to 10 ug/ml by equilibrium dialysis; type: ADME, cell-free; details: at 0.2 to 10 µg/mL, dose 0.2-10 µg/ml, read-out: PPB
parameter_measured: fraction unbound

Request: Name the reported fraction unbound value associated with the molecule "Cc1c(CN(C)C(=O)/C=C/c2cnc3c(c2)CCC(=O)N3COP(=O)(O)O)oc2ccccc12"
Response: < 0.05

---

experiment: Binding affinity to N-terminal His-tagged Full-length Clostridium difficile MetRS1 expressed in Escherichia coli assessed as inhibition constant by tRNA aminoacylation/ATP:PPi assay; parameters: species or system Clostridioides difficile
parameter_measured: pKi
Scale: pKi equals -log10([C]), with [C] in mol/L.

Request: Give its pKi value. Item: O=c1cc(NCCCN[C@@H]2CCOc3c(Br)cc(Br)cc32)[nH]c2ccsc12 [CRS-3123]
Response: 10.70
